LD50 at 336 h values for the compounds below.
Test: Comparative acute toxicity (LD50), mice
Settings: mouse, in vivo, sc, female, 2-week observation
// note: answer is a bare numeric in mg/kg

// worked examples, LD50 at 336 h included
{"columns": ["compound", "LD50 at 336 h (mg/kg)"],
 "data": [
  ["CC(C)C1O[C@@H]2C=C3[C@@H]4CCC5=CC(=O)C=C[C@]5(C)[C@H]4[C@@H](O)C[C@]3(C)[C@]2(C(=O)CO)O1 (stereo partly drawn) [Ex. No. 6]", 634],
  ["CCCC1O[C@@H]2C=C3[C@@H]4CCC5=CC(=O)C=C[C@]5(C)[C@H]4[C@@H](O)C[C@]3(C)[C@]2(C(=O)CO)O1 (stereo partly drawn) [Ex. No. 2]", 823]
]}

Look up LD50 at 336 h for this compound: CCCC1O[C@@H]2C[C@H]3[C@@H]4CCC5=CC(=O)C=C[C@]5(C)[C@H]4[C@@H](O)C[C@]3(C)[C@]2(C(=O)CO)O1 (stereo partly drawn) [Budesonide, reference compound]
109

The measurements presented in this section are drawn from patent US5053404A.
